Would you mind telling me the reported protein stability index of each entry?
B1: ZNF8 (parent)
chain: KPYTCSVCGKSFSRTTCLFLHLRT

Variants of: B1
Experiment: protein stability index of a GFP-peptide fusion (GPS, HEK-293T) (PSI 1-6); higher = more stable;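 also: lentivirally expressed fusions sorted by FACS into six bins by GFP to DsRed ratio, PSI derived from sequencing read proportions per bin multiplied by bin number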
Settings: c terminus: a fixed tail appended
Give bare numbers.

Batch lookup, protein stability index per entry.
1. R23L
2. F12K
3. R14N
4. F19R
5. C8V

[A]
[1.65, 2.88, 3.12, 2.35, 1.97]

For each of the variants below, state protein stability index.
1. V7D
2. C17A
3. L22P
4. L20E

[A]
1: 1.71; 2: 2.19; 3: 2.78; 4: 3.07

Batch of 8 variants: report protein stability index for each.
1. P2V
2. R14H
3. C17E
4. V7R
5. L20W
6. K1Q
7. R23H
8. T4Q

[A]
2.46
2.3
3.61
1.68
1.39
2.39
2.32
1.49

For every item in the list below, what is its measured protein stability index?
1. S6L
2. C5T
3. C8Q
4. C17T
5. T4F
6. V7Q

[A]
1.93
3.19
4.56
2.42
1.9
3.32

Hi team, please reply with protein stability index for each item in this list.
1. L18S
2. K10T

[A]
1. 1.89
2. 2.25

Hey, can you go through the list below and give me protein stability index for every item?
1. G9I
2. R23T
3. T16C

[A]
2.92
1.95
1.94

# batch size: 3; output protein stability index per entry
1. V7M
2. T4V
3. C8K

[A]
1. 2.29
2. 1.69
3. 2.45

Answer for every listed entry: what is its protein stability index? The entries follow.
1. T4W
2. T4D
3. C5I
4. S13P
5. G9E
6. F12D

[A]
1.62
2.75
3.17
2.16
1.71
2.22
